The measured values listed here are drawn from patent US20150087812A1.

Molecular target: recombinant human ATX beta isoform with N-terminal purification tag (human, UniProt Q13822 49-863)
Experiment: Fab-His ELISA
Kindly state fold above background for each of the entries shown.

Please give the measured fold above background for this binder: Fab F144 (VH H149, VL L122) (Fab, V domains shown, Soluble Fab-His) VH: QVQLVQSGAEVKKPGSSVKVSCKASGGTFSSYGISWVRQAPGQGLEWMGGIIPIFGTANYAQKFQGRVTITADESTSTAYMELSSLRSEDTAVYYCAREDVNYISTYSEFDYWGQGTLVTVSS VL: EIVLTQSPGTLSLSPGERATLSCRASQSVRKSGLAWYQQKPGQAPRLLIYNASSRATGIPDRFSGSGSGTDFTLTISRLEPEDFAVYYCQQATKPPLTFGQGTKVEIK
≥ 6 fold

Please give the measured fold above background for this binder: Fab F90 (VH H83, VL L83) (Fab, V domains shown, Soluble Fab-His) VH: QVQLVQSGAEVKKPGSSVKVSCKASGGTFSSYAISWVRQAPGQGLEWMGGIIPIFGTANYAQKFQGRVTITADESTSTAYMELSSLRSEDTAVYYCARGEANEVYPGLDYWGQGTLVTVSS VL: EIVLTQSPGTLSLSPGERATLSCRASQSVSKSALAWYQQKPGQAPRLLIYNASSRATGIPDRFSGSGSGTDFTLTISRLEPEDFAVYYCQQSNKDPLTFGQGTKVEIK
≥ 6 fold

Please give the measured fold above background for this binder: Fab F34 (VH H2, VL L28) (Fab, V domains shown, Soluble Fab-His; converted to mAb B5) VH: QVQLVQSGAEVKKPGSSVKVSCKASGGTFSSYAISWVRQAPGQGLEWMGGIIPIFGTANYAQKFQGRVTITADESTSTAYMELSSLRSEDTAVYYCARDDLPLGRLDYWGQGTLVTVSS VL: EIVLTQSPATLSLSPGERATLSCRASQSVAKFLAWYQQKPGQAPRLLIYKASNRATGIPARFSGSGSGTDFTLTISSLEPEDFAVYYCQQFNSAPITFGQGTKVEIK
≥ 6 fold
